The reported measurements were obtained from patent US20230416248A1.

biological target: BRM (Homo sapiens); construct: made in house; host or cells: High Five insect cells; assay: ATPase catalytic activity of BRM, ADP-Glo in vitro biochemical assay; settings: ratio of BRG1 IC50 to BRM IC50
readout-label: Ratio*

Consider the compound shown here: C[C@H]1CN(c2cccc(-c3ccc4cnc(CNC(=O)c5ccc(Cl)c(S(C)(=O)=O)c5)cc4n3)n2)CC[C@@H]1O [Compound 575] What is its recorded Ratio*? 15.34

Do the same for O=C(NCc1cc2nc(N3CCCc4cc(C5CC5)cnc43)ccc2cn1)c1ccc2c(c1)S(=O)(=O)CCOC2 [Compound 394] please 15.21

(1) CCOc1nc(-c2ccc3cnc(CNC(=O)c4ccc5c(c4)S(=O)(=O)CCOC5)cc3n2)ccc1C(F)F [Compound 489]
(2) COCc1cc2c(nc1C)N(c1ccc3cnc(CNC(=O)c4ccc5c(c4)S(=O)(=O)CCOC5)cc3n1)CCC2 [Compound 590]
Could you tell me which of these two has the smaller Ratio* figure? First: 1 Second: 2 Refer to your chosen entry by its label in the reply. 2
(2: 7.93, 1: 11.37)

====

target: BRM (Homo sapiens, UniProt P51531); construct: made in house; host or cells: High Five insect cells; experiment: ATPase catalytic activity of BRM, ADP-Glo in vitro biochemical assay; details: ATPase catalytic activity, ADP-Glo; 30 nM BRM, 400 μM ATP
Sequence (P51531 whole entry): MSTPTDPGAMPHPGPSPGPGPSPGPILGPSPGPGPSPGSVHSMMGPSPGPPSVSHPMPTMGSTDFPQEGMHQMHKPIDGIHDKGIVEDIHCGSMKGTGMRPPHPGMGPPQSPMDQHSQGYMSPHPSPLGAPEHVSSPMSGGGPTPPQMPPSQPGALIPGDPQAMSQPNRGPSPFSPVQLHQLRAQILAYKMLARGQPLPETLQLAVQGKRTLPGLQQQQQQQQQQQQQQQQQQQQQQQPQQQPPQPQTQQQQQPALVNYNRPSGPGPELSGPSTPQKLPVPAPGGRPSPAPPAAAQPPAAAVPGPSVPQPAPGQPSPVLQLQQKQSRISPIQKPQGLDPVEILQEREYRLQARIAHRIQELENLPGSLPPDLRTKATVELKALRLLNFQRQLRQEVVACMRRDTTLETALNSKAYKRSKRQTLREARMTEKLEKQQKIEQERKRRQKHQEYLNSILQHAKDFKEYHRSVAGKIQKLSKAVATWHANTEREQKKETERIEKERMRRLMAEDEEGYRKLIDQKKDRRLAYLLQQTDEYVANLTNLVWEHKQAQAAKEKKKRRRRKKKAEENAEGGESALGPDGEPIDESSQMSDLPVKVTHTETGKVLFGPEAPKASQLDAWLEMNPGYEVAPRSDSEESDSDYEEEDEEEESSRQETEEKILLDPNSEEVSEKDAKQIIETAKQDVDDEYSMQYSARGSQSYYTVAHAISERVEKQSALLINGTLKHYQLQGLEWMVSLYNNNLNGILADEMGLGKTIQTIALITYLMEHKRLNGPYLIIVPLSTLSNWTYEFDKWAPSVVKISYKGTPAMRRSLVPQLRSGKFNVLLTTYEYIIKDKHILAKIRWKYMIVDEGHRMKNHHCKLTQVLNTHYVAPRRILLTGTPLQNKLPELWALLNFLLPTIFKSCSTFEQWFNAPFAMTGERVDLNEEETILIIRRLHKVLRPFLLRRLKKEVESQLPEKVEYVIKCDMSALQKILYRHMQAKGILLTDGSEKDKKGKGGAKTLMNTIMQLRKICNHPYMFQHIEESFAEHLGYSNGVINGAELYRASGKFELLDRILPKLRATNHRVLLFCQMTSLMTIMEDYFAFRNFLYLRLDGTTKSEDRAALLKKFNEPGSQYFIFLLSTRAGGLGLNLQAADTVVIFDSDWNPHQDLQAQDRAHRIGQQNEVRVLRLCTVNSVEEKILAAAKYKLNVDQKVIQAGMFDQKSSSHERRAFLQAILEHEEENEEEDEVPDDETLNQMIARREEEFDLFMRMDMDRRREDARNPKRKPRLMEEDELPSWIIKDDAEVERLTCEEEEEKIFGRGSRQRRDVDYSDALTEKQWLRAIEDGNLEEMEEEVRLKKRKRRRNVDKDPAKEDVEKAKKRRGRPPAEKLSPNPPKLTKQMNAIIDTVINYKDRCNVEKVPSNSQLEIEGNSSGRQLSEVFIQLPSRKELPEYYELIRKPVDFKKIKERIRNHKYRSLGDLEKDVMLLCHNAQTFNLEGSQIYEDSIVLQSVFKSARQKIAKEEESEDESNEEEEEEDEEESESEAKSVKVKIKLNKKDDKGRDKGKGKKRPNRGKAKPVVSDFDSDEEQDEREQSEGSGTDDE
readout-label: IC50 (nM)

Would you please look over these solved cases?
Given the entry `C[C@@H]1CN(c2cccc(-c3ccc4cnc(CNC(=O)c5ccc6c(c5)S(=O)(=O)CC[C@H](C5CC5)O6)cc4n3)n2)C[C@H](C)O1` , what IC50 was observed with BRM (Homo sapiens, UniProt P51531)? 230

Do the same for CC1CN(c2cccc(-c3ccc4cnc(CNC(=O)c5ccc6c(c5)S(=O)(=O)C(C)COC6C)cc4n3)n2)CC(C)O1 (stereo not drawn) [Compound 540] please 30.7

Do the same for `Cc1cc2c(-c3ccc4cnc(CNC(=O)c5ccc6c(c5)S(=O)(=O)CCOC6)cc4n3)cncc2n1C` please 35.3

(I) CO[C@@H]1CN(c2cccc(-c3ccc4cnc(CNC(=O)c5ccc6c(c5)S(=O)(=O)CCOC6)cc4n3)n2)C[C@H]1F
(II) C[C@H]1COCc2ccc(C(=O)NCc3cc4nc(-c5ccnc([C@@H]6CC6(F)F)n5)ccc4cn3)cc2S1(=O)=O
(III) O=C(NCc1cc2nc(-c3cccc4c3CN(C3CC3)CC4)ccc2cn1)c1ccc2c(c1)S(=O)(=O)CCOC2
Order the records so the highest IC50 appears first and the lowest last. Use the labels to give the requested order. III, II, I
(III: 715 nM, II: 102 nM, I: 22.2 nM)

====

target: BRG-1 (Homo sapiens, UniProt P51532); construct: made in house; host or cells: High Five insect cells; experiment: ATPase catalytic activity of BRG-1, ADP-Glo in vitro biochemical assay; conditions: ATPase catalytic activity, ADP-Glo; 30 nM BRG-1, 400 μM ATP; read-out: BRG1 IC50
Sequence (P51532 whole entry): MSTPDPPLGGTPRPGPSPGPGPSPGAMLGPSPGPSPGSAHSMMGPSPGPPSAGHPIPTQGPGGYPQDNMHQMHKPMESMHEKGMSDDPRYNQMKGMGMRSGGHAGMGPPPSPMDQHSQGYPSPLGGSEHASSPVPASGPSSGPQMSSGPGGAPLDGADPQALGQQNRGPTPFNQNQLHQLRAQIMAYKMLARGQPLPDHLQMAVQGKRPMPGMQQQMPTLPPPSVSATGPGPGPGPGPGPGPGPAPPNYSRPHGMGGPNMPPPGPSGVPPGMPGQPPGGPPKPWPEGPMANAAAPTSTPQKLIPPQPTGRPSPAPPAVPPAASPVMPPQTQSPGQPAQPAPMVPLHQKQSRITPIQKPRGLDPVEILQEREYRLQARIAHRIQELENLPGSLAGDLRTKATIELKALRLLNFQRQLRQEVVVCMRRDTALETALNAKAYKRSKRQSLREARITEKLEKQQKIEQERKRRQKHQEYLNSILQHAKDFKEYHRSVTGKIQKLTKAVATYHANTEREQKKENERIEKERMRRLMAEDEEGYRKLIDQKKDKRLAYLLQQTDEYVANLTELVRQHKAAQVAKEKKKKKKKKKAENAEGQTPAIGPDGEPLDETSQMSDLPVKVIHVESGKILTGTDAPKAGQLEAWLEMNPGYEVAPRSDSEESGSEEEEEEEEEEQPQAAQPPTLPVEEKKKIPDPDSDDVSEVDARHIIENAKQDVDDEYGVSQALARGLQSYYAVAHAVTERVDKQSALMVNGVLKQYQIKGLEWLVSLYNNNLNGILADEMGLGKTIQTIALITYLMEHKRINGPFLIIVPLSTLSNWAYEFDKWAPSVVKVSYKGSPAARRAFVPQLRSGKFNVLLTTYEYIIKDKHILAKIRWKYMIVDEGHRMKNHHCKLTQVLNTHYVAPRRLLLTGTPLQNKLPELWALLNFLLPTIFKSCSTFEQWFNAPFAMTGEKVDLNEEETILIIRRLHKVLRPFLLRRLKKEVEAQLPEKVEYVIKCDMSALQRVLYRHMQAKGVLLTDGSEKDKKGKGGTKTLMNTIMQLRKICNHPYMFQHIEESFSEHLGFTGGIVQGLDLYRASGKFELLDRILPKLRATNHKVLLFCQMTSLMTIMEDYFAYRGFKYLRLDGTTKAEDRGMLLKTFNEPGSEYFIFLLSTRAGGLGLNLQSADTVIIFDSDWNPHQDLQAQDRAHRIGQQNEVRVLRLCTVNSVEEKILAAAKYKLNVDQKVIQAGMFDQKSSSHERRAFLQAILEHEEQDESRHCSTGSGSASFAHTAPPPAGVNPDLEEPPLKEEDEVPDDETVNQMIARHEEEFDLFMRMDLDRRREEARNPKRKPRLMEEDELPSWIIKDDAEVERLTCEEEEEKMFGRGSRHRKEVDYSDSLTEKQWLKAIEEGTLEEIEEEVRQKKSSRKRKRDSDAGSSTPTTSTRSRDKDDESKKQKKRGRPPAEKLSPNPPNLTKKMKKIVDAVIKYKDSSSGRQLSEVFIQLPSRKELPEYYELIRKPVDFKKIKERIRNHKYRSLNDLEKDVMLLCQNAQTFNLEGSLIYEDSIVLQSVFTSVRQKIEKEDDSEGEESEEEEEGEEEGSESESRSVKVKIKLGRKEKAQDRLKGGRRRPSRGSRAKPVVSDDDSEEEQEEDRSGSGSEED
readout-label: IC50 (µM)

Would you please look over these solved cases?
Consider the compound shown here: `C[C@H]1COCc2ccc(C(=O)NCc3cc4nc(-c5ccnc([C@H]6CC6(F)F)n5)ccc4cn3)cc2S1(=O)=O` What is its recorded IC50? 0.986

Do the same for O=C(NCc1cc2nc(-c3ccc4c(n3)N3CCOCC3C4)ccc2cn1)c1ccc2c(c1)S(=O)(=O)CCOC2 (stereo not shown) please 0.832

(a) O=C(NCc1cc2nc(N3CCOc4ccc([C@H]5CC5(F)F)nc43)ccc2cn1)c1ccc2c(c1)S(=O)(=O)CCOC2
(b) CN(C[C@@H]1CCO1)c1cccc(-c2ccc3cnc(CNC(=O)c4ccc5c(c4)S(=O)(=O)CCOC5)cc3n2)n1
I need your help: which of the pair a , b has higher IC50? Refer to your chosen entry by its label in the reply. a
(a: 0.758 µM, b: 0.12 µM)

====

target: BRM (Homo sapiens, UniProt P51531); construct: made in house; host or cells: High Five insect cells; experiment: ATPase catalytic activity of BRM, ADP-Glo in vitro biochemical assay; conditions: ratio of BRG1 IC50 to BRM IC50
readout-label: Ratio*

Would you please look over these solved cases?
Consider the compound shown here: CC1CN(c2cccc(-c3ccc4cnc(CNC(=O)c5cnc6c(c5)S(=O)(=O)C(C)CC6)cc4n3)n2)CC(C)O1 (centres unmarked) [Compound 597] What is its recorded Ratio*? 11.61

Do the same for O=C(NCc1cc2nc(N3CCC4(CC4)c4cccnc43)ccc2cn1)c1ccc2c(c1)S(=O)(=O)CCOC2 [Compound 600] please 13.32

Do the same for O=C(NCc1cc2nc(N3CCCc4ccc(OCC5COC5)cc43)ccc2cn1)c1ccc2c(c1)S(=O)(=O)CCOC2 [Compound 676] please 11.70

Do the same for CN(CCC(F)F)c1cccc(-c2ccc3cnc(CNC(=O)c4ccc5c(c4)S(=O)(=O)CCOC5)cc3n2)n1 [Compound 460] please 9.71

(1) O=C(NCc1cc2nc(-c3ccc(C(F)F)cc3OC3CC3)ccc2cn1)c1ccc2c(c1)S(=O)(=O)CCOC2 [Compound 357]
(2) CCc1ccc2c(n1)N(c1ccc3cnc(CNC(=O)c4ccc5c(c4)S(=O)(=O)CCOC5)cc3n1)CCO2 [Compound 658]
I need your help: which of the pair 1 , 2 has higher Ratio*? Refer to your chosen entry by its label in the reply. 2

====

target: BRM (Homo sapiens, UniProt P51531); construct: made in house; host or cells: High Five insect cells; assay: ATPase catalytic activity of BRM, ADP-Glo in vitro biochemical assay; settings: ADP-Glo ATPase assay, 30 nM BRM, 400 μM ATP
pIC50: −log10 of the molar value.
readout-label: pIC50

(1) CO[C@H](C)CN(C)c1cccc(-c2ccc3cnc(CNC(=O)c4ccc5c(c4)S(=O)(=O)CCOC5)cc3n2)n1
(2) CN(c1cccc(-c2ccc3cnc(CNC(=O)c4ccc5c(c4)S(=O)(=O)CCOC5)cc3n2)n1)[C@H]1CCOC1
I need your help: which of the pair 1 , 2 has higher pIC50? Refer to your chosen entry by its label in the reply. 1

====

target: BRM (Homo sapiens, UniProt P51531); construct: made in house; host or cells: High Five insect cells; experiment: ATPase catalytic activity of BRM, ADP-Glo in vitro biochemical assay; conditions: ATPase catalytic activity, ADP-Glo; 30 nM BRM, 400 μM ATP
readout-label: IC50 (nM)

Would you please look over these solved cases?
Consider the molecule shown here: COc1ccc2c(c1)OCCN2c1ccc2cnc(CNC(=O)c3ccc4c(c3)S(=O)(=O)CCOC4)cc2n1 [Compound 548] What is its recorded IC50? 5.4

Do the same for COCCN(CC(F)F)c1cccc(-c2ccc3cnc(CNC(=O)c4ccc5c(c4)S(=O)(=O)CCOC5)cc3n2)n1 [Compound 358] please 4.6

Do the same for Cc1cnc2c(c1)OCCN2c1ccc2cnc(CNC(=O)c3ccc4c(c3)S(=O)(=O)C(C)COC4)cc2n1 (centres unmarked) [Compound 545] please 7.7

Do the same for C[C@@H]1CN(c2cccc(-c3ccc4cnc(CNC(=O)c5cnc6c(c5)S(=O)(=O)CCCC6(F)F)cc4n3)n2)C[C@H](C)O1 [Compound 407] please 12.5

Do the same for CO[C@@H](c1ccc2c(n1)N(c1ccc3cnc(CNC(=O)c4ccc5c(c4)S(=O)(=O)CCOC5)cc3n1)CCC2)C1CC1 [Compound 663] please 673

Do the same for Cc1ccc2c(c1)OCCN2c1ccc2cnc(CNC(=O)c3ccc4c(c3)S(=O)(=O)CCOC4)cc2n1 [Compound 420] please 4.2

(a) C[C@@H]1CN(c2cccc(-c3ccc4cnc(CNC(=O)c5cc(Cl)c6c(c5)S(=O)(=O)[C@H](C)CCO6)cc4n3)n2)C[C@H](C)O1 [Compound 486]
(b) CCOc1ccc2c(n1)N(c1ccc3cnc(CNC(=O)c4ccc5c(c4)S(=O)(=O)CCOC5)cc3n1)CCC2 [Compound 576]
(c) CN1CCN(c2ccc3cnc(CNC(=O)c4ccc5c(c4)S(=O)(=O)CCOC5)cc3n2)c2ncccc21 [Compound 442]
(d) C[C@@H]1CN(c2cccc(-c3ccc4cnc(CNC(=O)c5ccc6c(c5)S(=O)(=O)[C@@H](C)C6)cc4n3)n2)C[C@H](C)O1 [Compound 500]
(e) C[C@@H]1CN(c2cccc(-c3ccc4cnc(CNC(=O)c5cc6c(cc5F)COCCS6(=O)=O)cc4n3)n2)C[C@H](C)O1 [Compound 648]
Order the records so the highest IC50 appears first and the lowest last. Use the labels to give the requested order. a, d, b, c, e

(a) COc1c(-c2ccc3cnc(CNC(=O)c4ccc5c(c4)S(=O)(=O)CCOC5)cc3n2)cccc1C(F)F [Compound 343]
(b) O=C(NCc1cc2nc(N3CCc4ccc(Cl)cc43)ccc2cn1)c1ccc2c(c1)S(=O)(=O)CCOC2 [Compound 654]
Could you tell me which of these two has the smaller IC50 figure? First: a Second: b Refer to your chosen entry by its label in the reply. b

(a) Cc1cc(C(=O)NCc2cc3nc(-c4cccc(N5C[C@@H](C)O[C@@H](C)C5)n4)ccc3cn2)cc2c1O[C@H](C)CCS2(=O)=O [Compound 541]
(b) CCOCc1ccc2c(n1)N(c1ccc3cnc(CNC(=O)c4ccc5c(c4)S(=O)(=O)CCOC5)cc3n1)CCC2 [Compound 564]
I need your help: which of the pair a , b has higher IC50? Refer to your chosen entry by its label in the reply. a
(a: 131 nM, b: 33.6 nM)

(I) O=C(NCc1cc2nc(N3CCCc4ccc(OCC5CC5)nc43)ccc2cn1)c1ccc2c(c1)S(=O)(=O)CCOC2 [Compound 589]
(II) O=C(NCc1cc2nc(-c3cncc(C4CC4)n3)ccc2cn1)c1cnc2c(c1)S(=O)(=O)CCCCC2 [Compound 450]
I need your help: which of the pair I , II has higher IC50? Refer to your chosen entry by its label in the reply. I
